System: pseudo-kinase domain (JH2) of human Wild Type JAK2 (Homo sapiens, UniProt O60674, F794H/W659A/W777A)
Construct: pseudo-kinase domain (JH2, amino-acids 536-812 with 3 surface mutations W659A, W777A, F794H); His (C)
Sequence (O60674 536-812 W659A/W777A/F794H): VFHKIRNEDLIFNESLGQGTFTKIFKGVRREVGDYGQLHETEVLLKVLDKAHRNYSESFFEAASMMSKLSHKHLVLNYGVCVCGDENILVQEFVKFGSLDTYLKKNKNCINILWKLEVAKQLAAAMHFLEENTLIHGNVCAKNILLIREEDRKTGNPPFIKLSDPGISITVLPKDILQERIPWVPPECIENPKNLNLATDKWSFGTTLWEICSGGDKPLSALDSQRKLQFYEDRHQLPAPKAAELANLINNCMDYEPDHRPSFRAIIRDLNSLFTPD
Method Summary: JAK2 LanthaScreen JH2-WT Binding Assay
Reported Conditions: 50 nM Fluorescent JAK2-JH2 Tracer, 1 hour at 25° C.
pIC50: −log10 of the molar value.
Quantity Name: pIC50

# count of solved cases: 5
CN(C)S(=O)(=O)c1ccc(-c2[nH]c3nc(N)[nH]c(=O)c3c2-c2cccc(CO)c2)cc1 [Example 4] :: 6.00 to 6.30
COc1ccccc1-c1c(-c2ccc(S(C)(=O)=O)cc2)[nH]c2nc(N)[nH]c(=O)c12 [Example 62] :: 5.60 to 6.00
CN(C)S(=O)(=O)c1ccc(-c2[nH]c3nc(N)[nH]c(=O)c3c2-c2ccccc2)cc1 [Example 38] :: 6.30 to 7.00
COc1ccccc1-c1c(-c2ccc(C(=O)N(C)C)cc2)[nH]c2nc(N)[nH]c(=O)c12 [Example 56] :: 6.00 to 6.30
COc1cccc(-c2c(-c3ccc(S(=O)(=O)N(C)C)cc3)[nH]c3nc(N)[nH]c(=O)c23)c1OC [Example 43] :: 5.60 to 6.00

Request: Please list pIC50 recorded for the molecule CN(C)S(=O)(=O)c1ccc(-c2[nH]c3nc(N)[nH]c(=O)c3c2-c2ccnn2C)cc1 [Example 46]
Result: < 5.60

Request: Please list pIC50 recorded for the molecule COc1ccccc1-c1c(-c2ccc(C(=O)N3CCOCC3)cc2)[nH]c2nc(N)[nH]c(=O)c12 [Example 54]
Result: 6.00 to 6.30

----------
System: catalytic domain (JH1) of human JAK2 (Homo sapiens, UniProt O60674)
Construct: catalytic domain (JH1, amino acids 826-1132) of human JAK2; FLAG (N)
Sequence (O60674 826-1132): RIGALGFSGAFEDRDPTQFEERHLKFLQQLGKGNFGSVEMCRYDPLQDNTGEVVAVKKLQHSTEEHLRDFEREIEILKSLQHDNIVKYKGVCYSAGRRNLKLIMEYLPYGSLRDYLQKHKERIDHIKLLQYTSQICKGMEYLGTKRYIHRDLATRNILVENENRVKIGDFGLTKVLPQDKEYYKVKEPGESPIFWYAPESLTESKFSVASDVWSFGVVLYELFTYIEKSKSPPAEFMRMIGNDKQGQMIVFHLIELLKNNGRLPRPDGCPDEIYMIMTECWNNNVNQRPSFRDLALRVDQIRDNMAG
Method Summary: JAK2 LanthaScreen JH1 Binding Assay
Reported Conditions: 50 nM Fluorescent JAK2-JH1 Tracer, 2 hours at 25° C.
pIC50: −log10 of the molar value.
Quantity Name: pIC50

# count of solved cases: 2
CN(C)S(=O)(=O)c1ccc(-c2[nH]c3nc(N)[nH]c(=O)c3c2-c2ccccc2)cc1 [Example 38] :: 6.00 to 6.30
Cc1cccc(-c2c(-c3ccc(S(=O)(=O)N(C)C)cc3)[nH]c3nc(N)[nH]c(=O)c23)c1F [Example 67] :: 6.30 to 7.00

Request: Find the measured pIC50 of COc1cc2ccccc2cc1-c1c(-c2ccc(S(=O)(=O)N(C)C)cc2)[nH]c2nc(N)[nH]c(=O)c12 [Example 33] with catalytic domain (JH1) of human JAK2 (Homo sapiens, UniProt O60674) as test system.
Result: < 5.60

Request: Find the measured pIC50 of COc1ccc(C)cc1-c1c(-c2ccc(S(=O)(=O)N(C)C)cc2)[nH]c2nc(N)[nH]c(=O)c12 [Example 66] with catalytic domain (JH1) of human JAK2 (Homo sapiens, UniProt O60674) as test system.
Result: < 5.60

Request: Find the measured pIC50 of CN1CCOc2cc(-c3c(-c4ccc(S(=O)(=O)N(C)C)cc4)[nH]c4nc(N)[nH]c(=O)c34)ccc21 [Example 22] with catalytic domain (JH1) of human JAK2 (Homo sapiens, UniProt O60674) as test system.
Result: 5.60 to 6.00

Request: Find the measured pIC50 of CN(C)S(=O)(=O)c1ccc(-c2[nH]c3nc(N)[nH]c(=O)c3c2-c2cnn(Cc3cccnc3)c2)cc1 [Example 29] with catalytic domain (JH1) of human JAK2 (Homo sapiens, UniProt O60674) as test system.
Result: < 5.60

Request: Find the measured pIC50 of CN(C)S(=O)(=O)c1ccc(-c2[nH]c3nc(N)[nH]c(=O)c3c2-c2cccc3c2OCCO3)cc1 [Example 7] with catalytic domain (JH1) of human JAK2 (Homo sapiens, UniProt O60674) as test system.
Result: < 5.60

----------
Readings of pIC50 for the listed molecules
System: pseudo-kinase domain (JH2) of human Wild Type JAK2 (Homo sapiens, UniProt O60674, F794H/W659A/W777A)
Construct: pseudo-kinase domain (JH2, amino-acids 536-812 with 3 surface mutations W659A, W777A, F794H); His (C)
Method Summary: JAK2 LanthaScreen JH2-WT Binding Assay
Reported Conditions: 50 nM Fluorescent JAK2-JH2 Tracer, 1 hour at 25° C.
pIC50: −log10 of the molar value.

# count of solved cases: 3
CN(C)S(=O)(=O)c1ccc(-c2[nH]c3nc(N)[nH]c(=O)c3c2-c2cccc3c2OC(C)(C)C3)cc1 :: < 5.60
Cc1ccc(F)c(-c2c(-c3ccc(S(=O)(=O)N(C)C)cc3)[nH]c3nc(N)[nH]c(=O)c23)c1 :: 6.30 to 7.00
COc1c(Cl)cccc1-c1c(-c2ccc(S(=O)(=O)N(C)C)cc2)[nH]c2nc(N)[nH]c(=O)c12 :: < 5.60

Request: Please list pIC50 recorded for the molecule "CN(C)S(=O)(=O)c1ccc(-c2[nH]c3nc(N)[nH]c(=O)c3c2-c2cccc3c2OC(F)(F)O3)cc1"
Result: < 5.60

Request: Please list pIC50 recorded for the molecule "CN(C)S(=O)(=O)c1ccc(-c2[nH]c3nc(N)[nH]c(=O)c3c2-c2ccccc2CC#N)cc1"
Result: < 5.60

Request: Please list pIC50 recorded for the molecule "CN(C)S(=O)(=O)c1ccc(-c2[nH]c3nc(N)[nH]c(=O)c3c2-c2cccc3cn[nH]c23)cc1"
Result: < 5.60

Request: Please list pIC50 recorded for the molecule "Cc1cccc(-c2c(-c3ccc(S(=O)(=O)N(C)C)cc3)[nH]c3nc(N)[nH]c(=O)c23)c1"
Result: 6.00 to 6.30

Request: Please list pIC50 recorded for the molecule "CN(C)S(=O)(=O)c1ccc(-c2[nH]c3nc(N)[nH]c(=O)c3c2-c2cccc3ccoc23)cc1"
Result: 6.30 to 7.00

Request: Please list pIC50 recorded for the molecule "COc1cc(C(N)=O)ccc1-c1c(-c2ccc(S(=O)(=O)N(C)C)cc2)[nH]c2nc(N)[nH]c(=O)c12"
Result: 6.00 to 6.30

Request: Please list pIC50 recorded for the molecule "CN(C)S(=O)(=O)c1ccc(-c2[nH]c3nc(N)[nH]c(=O)c3c2-c2cnn(Cc3ccc(C#N)cc3)c2)cc1"
Result: 5.60 to 6.00

Request: Please list pIC50 recorded for the molecule "CN1CCC(c2ccc(-c3c(-c4ccc(S(=O)(=O)N(C)C)cc4)[nH]c4nc(N)[nH]c(=O)c34)cc2)CC1"
Result: 5.60 to 6.00

Request: Please list pIC50 recorded for the molecule "COc1ccccc1-c1c(-c2cccc(S(C)(=O)=O)c2)[nH]c2nc(N)[nH]c(=O)c12"
Result: < 5.60

Request: Please list pIC50 recorded for the molecule "COc1cccc(F)c1-c1c(-c2ccc(S(=O)(=O)N(C)C)cc2)[nH]c2nc(N)[nH]c(=O)c12"
Result: 6.00 to 6.30

Request: Please list pIC50 recorded for the molecule "COc1cc2ccccc2cc1-c1c(-c2ccc(S(=O)(=O)N(C)C)cc2)[nH]c2nc(N)[nH]c(=O)c12"
Result: 6.00 to 6.30

Request: Please list pIC50 recorded for the molecule "COc1ncccc1-c1c(-c2ccc(S(=O)(=O)N(C)C)cc2)[nH]c2nc(N)[nH]c(=O)c12"
Result: 5.60 to 6.00

----------
System: pseudo-kinase domain (JH2) of human V617F mutant JAK2 (Homo sapiens, UniProt O60674, F794H/V617F/W659A/W777A)
Construct: pseudo-kinase domain (JH2, amino-acids 536-812 with 3 surface mutations W659A, W777A, F794H); His (C)
Sequence (O60674 536-812 V617F/W659A/W777A/F794H): as the sequence (O60674 536-812 W659A/W777A/F794H) above, with V82F counted along it
Method Summary: JAK2 LanthaScreen JH2-V617F Binding Assay
Reported Conditions: 50 nM Fluorescent JAK2-JH2 Tracer, 1 hour at 25° C.
Readings of IC50 for the listed compounds

# count of solved cases: 4
COc1ncccc1-c1c(-c2ccc(S(=O)(=O)N(C)C)cc2)[nH]c2nc(N)[nH]c(=O)c12 :: 1000 to 2500 nM
COc1cccc(-c2c(-c3ccc(S(=O)(=O)N(C)C)cc3)[nH]c3nc(N)[nH]c(=O)c23)c1OC :: 1000 to 2500 nM
CC(C)c1cccc(-c2c(-c3ccc(S(=O)(=O)N(C)C)cc3)[nH]c3nc(N)[nH]c(=O)c23)c1 :: > 2500 nM
CN(C)S(=O)(=O)c1ccc(-c2[nH]c3nc(N)[nH]c(=O)c3c2-c2cccc3c2OC(C)(C)C3)cc1 :: > 2500 nM

Request: Please list IC50 recorded for the compound "CN(C)S(=O)(=O)c1ccc(-c2[nH]c3nc(N)[nH]c(=O)c3c2-c2cccc3c2OCCN3)cc1"
Result: 500 to 1000 nM

Request: Please list IC50 recorded for the compound "CN(C)S(=O)(=O)c1ccc(-c2[nH]c3nc(N)[nH]c(=O)c3c2-c2ccc(C(F)F)cc2)cc1"
Result: 500 to 1000 nM

Request: Please list IC50 recorded for the compound "CN1CCC(c2ccc(-c3c(-c4ccc(S(=O)(=O)N(C)C)cc4)[nH]c4nc(N)[nH]c(=O)c34)cc2)CC1"
Result: 1000 to 2500 nM

Request: Please list IC50 recorded for the compound "COc1cc(C(N)=O)ccc1-c1c(-c2ccc(S(=O)(=O)N(C)C)cc2)[nH]c2nc(N)[nH]c(=O)c12"
Result: 500 to 1000 nM

Request: Please list IC50 recorded for the compound "Nc1nc2[nH]c(-c3ccccc3)c(-c3cccc(F)c3)c2c(=O)[nH]1"
Result: 1000 to 2500 nM

Request: Please list IC50 recorded for the compound "CN(C)S(=O)(=O)c1ccc(-c2[nH]c3nc(N)[nH]c(=O)c3c2-c2cccc3c2OCCO3)cc1"
Result: 500 to 1000 nM

Request: Please list IC50 recorded for the compound "COc1ccc(Cl)cc1-c1c(-c2ccc(S(=O)(=O)N(C)C)cc2)[nH]c2nc(N)[nH]c(=O)c12"
Result: > 2500 nM

Request: Please list IC50 recorded for the compound "COc1c(Cl)cccc1-c1c(-c2ccc(S(=O)(=O)N(C)C)cc2)[nH]c2nc(N)[nH]c(=O)c12"
Result: > 2500 nM

Request: Please list IC50 recorded for the compound "CN(C)S(=O)(=O)c1ccc(-c2[nH]c3nc(N)[nH]c(=O)c3c2-c2cccc3ccoc23)cc1"
Result: 100 to 500 nM

Request: Please list IC50 recorded for the compound "COc1ccccc1-c1c(-c2ccccc2)[nH]c2nc(N)[nH]c(=O)c12"
Result: 1000 to 2500 nM

Request: Please list IC50 recorded for the compound "COc1ccc(-c2c(-c3ccc(S(=O)(=O)N(C)C)cc3)[nH]c3nc(N)[nH]c(=O)c23)c(OC)c1"
Result: 500 to 1000 nM

Request: Please list IC50 recorded for the compound "CN(C)S(=O)(=O)c1ccc(-c2[nH]c3nc(N)[nH]c(=O)c3c2-c2ccnn2C)cc1"
Result: > 2500 nM

Request: Please list IC50 recorded for the compound "Cc1ccc(F)c(-c2c(-c3ccc(S(=O)(=O)N(C)C)cc3)[nH]c3nc(N)[nH]c(=O)c23)c1"
Result: 100 to 500 nM

Request: Please list IC50 recorded for the compound "CN(C)S(=O)(=O)c1ccc(-c2[nH]c3nc(N)[nH]c(=O)c3c2-c2cccc(CO)c2)cc1"
Result: 500 to 1000 nM

Request: Please list IC50 recorded for the compound "CN(C)S(=O)(=O)c1ccc(-c2[nH]c3nc(N)[nH]c(=O)c3c2-c2cnn(Cc3cccnc3)c2)cc1"
Result: > 2500 nM

Request: Please list IC50 recorded for the compound "COc1ccccc1-c1c(-c2ccc(S(C)(=O)=O)cc2)[nH]c2nc(N)[nH]c(=O)c12"
Result: 500 to 1000 nM

Request: Please list IC50 recorded for the compound "CN1CCOc2cc(-c3c(-c4ccc(S(=O)(=O)N(C)C)cc4)[nH]c4nc(N)[nH]c(=O)c34)ccc21"
Result: 500 to 1000 nM

Request: Please list IC50 recorded for the compound "CN(C)S(=O)(=O)c1ccc(-c2[nH]c3nc(N)[nH]c(=O)c3c2-c2ccccc2C#N)cc1"
Result: > 2500 nM

Request: Please list IC50 recorded for the compound "CN(C)S(=O)(=O)c1ccc(-c2[nH]c3nc(N)[nH]c(=O)c3c2-c2ccc(C#N)cc2)cc1"
Result: 1000 to 2500 nM

Request: Please list IC50 recorded for the compound "CN(C)S(=O)(=O)c1ccc(-c2[nH]c3nc(N)[nH]c(=O)c3c2-c2cccc3c2OCCC3)cc1"
Result: 500 to 1000 nM

Request: Please list IC50 recorded for the compound "CN(C)S(=O)(=O)c1ccc(-c2[nH]c3nc(N)[nH]c(=O)c3c2-c2ccccc2F)cc1"
Result: 100 to 500 nM

Request: Please list IC50 recorded for the compound "COc1ccc(C)cc1-c1c(-c2ccc(S(=O)(=O)N(C)C)cc2)[nH]c2nc(N)[nH]c(=O)c12"
Result: 100 to 500 nM

Request: Please list IC50 recorded for the compound "CN(C)S(=O)(=O)c1ccc(-c2[nH]c3nc(N)[nH]c(=O)c3c2-c2ccc(S(C)(=O)=O)cc2)cc1"
Result: 100 to 500 nM

Request: Please list IC50 recorded for the compound "CN(C)S(=O)(=O)c1ccc(-c2[nH]c3nc(N)[nH]c(=O)c3c2-c2cccc3c2OCC(=O)N3)cc1"
Result: 100 to 500 nM

Request: Please list IC50 recorded for the compound CN(C)S(=O)(=O)c1ccc(-c2[nH]c3nc(N)[nH]c(=O)c3c2-c2cnn(C3CCS(=O)(=O)C3)c2)cc1 (centres unmarked)
Result: 1000 to 2500 nM
